- test details: Rat PK study #4 (Compound A PO 0.2 and 1.0 mg/kg, propylene glycol formulation)
- Assay type: in vivo, Lewis rats
- conditions: male, Lewis, rat, plasma, po, 0.2 mg/kg, Lewis rats, PO 0.2 mg/kg, propylene glycol-based formulation, 1 h, mean of 3 animals
measured property: concentration at 1 h (ng/mL)
Write down the numeric answer in ng/mL and omit the unit.

Input: Which concentration at 1 h is listed for `Cn1cc(-c2ccccc2)c(-c2cn(C)c(=O)c3[nH]c(-c4cnn(C(F)(F)F)c4)cc23)cc1=O` ?
Output: 4.51

###

- test details: Dog PK study #1 (Compound A IV and PO, propylene glycol formulation)
- Assay type: in vivo, beagle dogs
- conditions: beagle, dog, plasma, iv, 1 mg/kg, IV 1 mg/kg, 1 h; individual animals; read-out: Plasma concentration
measured property: concentration at 1 h (ng/mL)
Write down the numeric answer in ng/mL and omit the unit.

Input: Which concentration at 1 h is listed for Cn1cc(-c2ccccc2)c(-c2cn(C)c(=O)c3[nH]c(-c4cnn(C(F)(F)F)c4)cc23)cc1=O [Compound A] ?
Output: 802
